# System: MDA-MB-231 cells
# protocol details: Transwell invasion assay of MDA-MB-231 breast cancer cells
# Assay type: cell-based
# measurement setup: Homo sapiens; 1 μM; MDA-MB-231; read-out: Inhibition rates of invasion of cancer cells (%)
# Procedure: The invasion assay was performed by using the transwell insert (BD FALCON, Bedford, USA) equipped with a 8 μm pore-sized filter. An upper part of the transwell insert filter was coated with 20 μl of matrigel (1 mg/ml) while a bottom part of the same was coated with 30 μl of type I collagen (0.5 mg/ml). […] The cells present at the membrane were observed through a microscope, and the number of the cells was counted in the selected 5 fields at the resolution of 200×. […]
Consider the following compounds and their measured inhibition at 1 µM readings.
endpoint name: inhibition at 1 µM (%)

# compound string, result unit, reported measurement
records = [
    ("Cc1nc(N(c2ccccc2)c2ccccc2)c(C)c(C)c1O", "%", 1.78),
    ("Cc1nc(N)c(C)c(C)c1O", "%", 0.3),
    ("Cc1nc(NC(=O)c2ccc(F)cc2)c(C)c(C)c1O", "%", 33),
    ("Cc1nc(NC(=O)c2cccs2)c(C)c(C)c1O", "%", 65.8),
]

----------
# System: cathepsin S
# protocol details: RT-PCR of cathepsin S gene expression in MDA-MB-231 cells
# Type: cell-based
# measurement setup: Homo sapiens, MDA-MB-231, 24 h, screening, 1 μM of each compound; MDA-MB-231, RT-PCR; read-out: Inhibition rate of expression of cathepsin S (%)
Listed here are compounds together with their documented inhibition at 1 µM.

# compound string, tested system, inhibition at 1 µM
records = [
    ("CCCCCCCCCCCC(=O)Nc1nc(C)c(O)c(C)c1C", "cathepsin S", "≥ 50%"),
    ("Cc1nc(NC(=O)C(C)(C)C)c(C)c(C)c1O", "cathepsin S", "16.4%"),
    ("Cc1nc(NC(=O)CCCCl)c(C)c(C)c1O", "cathepsin S", "27%"),
    ("CC(=O)Nc1nc(C)c(O)c(C)c1C", "cathepsin S", "≥ 50%"),
    ("CCC(CC)C(=O)Nc1nc(C)c(O)c(C)c1C", "cathepsin S", "3.9%"),
    ("Cc1nc(NC(=O)c2ccc(C(C)(C)C)cc2)c(C)c(C)c1O", "cathepsin S", "8%"),
    ("Cc1nc(NC(=O)C2CCCC2)c(C)c(C)c1O", "cathepsin S", "≥ 50%"),
    ("Cc1cc(C)c(C(=O)Nc2nc(C)c(O)c(C)c2C)c(C)c1", "cathepsin S", "2.9%"),
    ("Cc1nc(NC(=O)c2cccc3ccccc23)c(C)c(C)c1O", "cathepsin S", "44%"),
]

----------
Form field: Inhibition rates of angiogenesis (%) (one value per entry).
# Test system: A549 lung cancer cells
# protocol details: CAM inoculated with A549 lung cancer cells: angiogenesis and tumor growth
# Assay type: in vivo, chicken
# measurement setup: 0.1 pmol/CAM; A549 on CAM, 5 days

# compound, tested system, result unit, Inhibition rates of angiogenesis (%)
rows = [
    ("CN(C)c1ccc(/C=C2\\C(=O)Nc3ccccc32)cc1 [SU4312, reference compound]", "A549 lung cancer cells", "%", 25.1),
    ("Cc1nc(NC(=O)C2CCCC2)c(C)c(C)c1O [Compound 8g]", "A549 lung cancer cells", "%", 54.4),
    ("CCCCCCCCCCCC(=O)Nc1nc(C)c(O)c(C)c1C [Compound 8b]", "A549 lung cancer cells", "%", 21.3),
    ("CC(=O)Nc1nc(C)c(O)c(C)c1C [Compound 8a]", "A549 lung cancer cells", "%", 30.4),
]
